Value source: patent US20220195015A1

Listed binders paired with reported EC50
Molecular target: SARS-CoV-2 spike protein receptor binding domain (RBD) (SARS-CoV-2, UniProt P0DTC2 319-539)
Assay: ELISA, RBD coated on plate, mAb titrated

{"columns": ["binder", "measured_endpoint", "result"],
 "data": [
  ["C548 (antibody, V domains shown) VH: QVQLVQSGAEVKKPGSSVKVSCKASGGTFSSYAISWVRQAPGQGLEWMGGIIPIFGTANYAQKFQGRVTITADESTSTAYMELSSLRSEDTAVYYCARREAYGPRDYYYYYGMDVWGQGTTVTVSS VL: QSALTQPPSASASLGASVTLTCTLSSGYSNYKVDWYQQRPGKGPRFVMRVGTGGIVGSKGDGIPDRFSVLGSGLNRYLTIKNIQEEDESDYHCGADQGSGSNFVGVFGGGTKLTVL", "EC50", "1.72 ng/mL"],
  ["C540 (antibody, V domains shown) VH: EVQLVESGGGLVQPGGSLRLSCAASGFTFRNYDMHWVRQVAGKGLEWVSAIGTSGDTYYPDSVKGRFTISRENAKNSVYLQMNNLRAGDTAVYFCVRDREISGWTGWYFDLWGRGTLVTVSS VL: DIQMTQSPSSLSASVGDRVTITCRASQTIHNYLNWYQQIPGKAPRLLIYATNTLQSGVPSRFSGSGSGTDFTLTITGLQPEDFATYYCQQSYSTPPITFGQGTRLEIK", "EC50", "2.9 ng/mL"]
]}

Next, consider the following binder.
Reported EC50 for C546 (antibody, V domains shown) VH: EVQLLESGGGLVHPGGSLRLSCAASGFTFSTYAMHWVRQAPGKGLEWVSAISGSGTGTFYADSVKGRFSISRDNSKNTLYLQMNSLRAEDTAVYYCATERIAVSDTRMYNWFDPWGQGTLVTVSS VL: DIQMTQSPSSLSASVGDRVTLTCRASQGISTYLNWYQQKPGKAPNLLIYAASSLQSGVPSRFSGSGSGTDFTLTISSLQPEDFATYYCQQSYSAPPWTFGQGTKVEIK was 3.57 ng/mL
